Tested on: rat
Test: Toxicity: dose at which first cardiotoxic or neurotoxic symptoms occur, rat, oral administration
Type: in vivo, male Sprague-Dawley rats
Settings: in vivo, po
Toxicity Dose (dose after the application of which the first toxic symptoms are observed) listing for selected compounds.
METRIC: Toxicity Dose (dose after the application of which the first toxic symptoms are observed)

[
  {
    "COMPOUND": "CC(=O)N1CCc2c([nH]c3ccccc23)C1CCCN1CCN(C)CC1 (centres unmarked) [Example 21]",
    "VALUE": "215 mg/kg"
  },
  {
    "COMPOUND": "CCCCNCCCC1c2[nH]c3ccccc3c2CCN1C(C)=O (centres unmarked) [Example 28]",
    "VALUE": "215 mg/kg"
  },
  {
    "COMPOUND": "CC(=O)N1CCc2c(n(C)c3ccccc23)C1CCCN(CC(C)C)CC(C)C (centres unmarked) [Example 43]",
    "VALUE": "10 mg/kg"
  },
  {
    "COMPOUND": "CCC(C)N(CCCC1c2[nH]c3ccccc3c2CCN1C(C)=O)C(C)CC (centres unmarked) [Example 33]",
    "VALUE": "21.5 mg/kg"
  },
  {
    "COMPOUND": "CCn1c2c(c3ccccc31)CCN(C(C)=O)C2CCCN1CCN(C)CC1 (centres unmarked) [Example 44]",
    "VALUE": "215 mg/kg"
  },
  {
    "COMPOUND": "CC(=O)N1CCc2c([nH]c3ccccc23)C1CCCN(C)C (centres unmarked) [Example 4]",
    "VALUE": "215 mg/kg"
  },
  {
    "COMPOUND": "CCCCN(CCCC)CCCC1c2[nH]c3ccccc3c2CCN1C(C)=O (centres unmarked) [Example 31]",
    "VALUE": "21.5 mg/kg"
  },
  {
    "COMPOUND": "CCCN(CCC)CCCC1c2c(c3ccccc3n2C)CCN1C(C)=O (centres unmarked) [Example 42]",
    "VALUE": "10 mg/kg"
  }
]

* * *

Assay: Toxicity: dose at which first cardiotoxic or neurotoxic symptoms occur, rat, oral administration
Type: in vivo, male Sprague-Dawley rats
Details: in vivo, po
Procedure: To investigate the antiarrhythmic activity, the substances were administered orally to male Sprague-Dawley rats each weighing 200-250 g. […] For further characterization of the substances, the dose at which the first cardiotoxic symptoms (changes in the initial ECG) or neurotoxic symptoms (coordination disturbances, convulsions, etc.) occurred was determined from the decimal-geometric dosage progression (factor .cuberoot.10) used in the experiments.
selectivity ratio listing for selected compounds.

[
  {
    "COMPOUND": "CC(=O)N1CCc2c([nH]c3ccccc23)C1CCCN(C)C (centres unmarked) [Example 4]",
    "selectivity ratio": 16
  },
  {
    "COMPOUND": "CCCN(CCC)CCCC1c2c(c3ccccc3n2C)CCN1C(C)=O (centres unmarked) [Example 42]",
    "selectivity ratio": 12
  },
  {
    "COMPOUND": "CC(=O)N1CCc2c([nH]c3ccccc23)C1CCCN1CCN(C)CC1 (centres unmarked) [Example 21]",
    "selectivity ratio": 15
  },
  {
    "COMPOUND": "CCCCNCCCC1c2[nH]c3ccccc3c2CCN1C(C)=O (centres unmarked) [Example 28]",
    "selectivity ratio": 17
  },
  {
    "COMPOUND": "CC(=O)N1CCc2c(n(C)c3ccccc23)C1CCCN(CC(C)C)CC(C)C (centres unmarked) [Example 43]",
    "selectivity ratio": 13
  },
  {
    "COMPOUND": "CCC(C)N(CCCC1c2[nH]c3ccccc3c2CCN1C(C)=O)C(C)CC (centres unmarked) [Example 33]",
    "selectivity ratio": 14
  },
  {
    "COMPOUND": "CCCCN(CCCC)CCCC1c2[nH]c3ccccc3c2CCN1C(C)=O (centres unmarked) [Example 31]",
    "selectivity ratio": 13
  },
  {
    "COMPOUND": "CCn1c2c(c3ccccc31)CCN(C(C)=O)C2CCCN1CCN(C)CC1 (centres unmarked) [Example 44]",
    "selectivity ratio": 23
  }
]
